Biological target: Human TRPC6 (Homo sapiens)
Construct: expressed in transfected cells
Assay: Evaluation of TRPC6 channel inhibitory activity (1), FLIPR Calcium 5 Assay Kit, OAG stimulation (Compound Nos. 1-1293)
Type: cell-based
Settings: Human TRPC6 stably-expressing cells, OAG 30 μM, FLIPR Calcium 5 Assay Kit; read-out: Inhibitory activity (pIC50 class) (converted)
ASSAY READOUT: IC50

Please look at this compound and report its IC50: Cn1nc(-c2ccccc2)cc1Oc1cc(C#N)ccc1-c1ccc([C@@H](O)CN)cn1 < 10 nM

Please look at this compound and report its IC50: Cc1cc(Oc2cc(C#N)ccc2-c2ccc(N3CC(N)CC3=O)cn2)cc(N2CCOCC2)n1 (centres unmarked) > 1000 nM

Please look at this compound and report its IC50: N#Cc1ccc(-c2ccc(CCN)cn2)c(Cn2cnc(-c3cccc(F)c3)c2)c1 < 10 nM

Please look at this compound and report its IC50: N#Cc1ccc(-c2ccc(CN)cn2)c(C(=O)c2nnc(N3CCOCC3)s2)c1 > 1000 nM

Please look at this compound and report its IC50: Cn1nc(N2CCCC2)cc1Cc1cc(C#N)ccc1-c1ccc(CCN)cn1 < 10 nM

Please look at this compound and report its IC50: Cc1cc(Oc2cc(C#N)ccc2-c2ncc(CCN)cn2)cc(OCC2CCO2)n1 (centres unmarked) 10 to 1000 nM

Please look at this compound and report its IC50: CC(C)COCc1cncn1Cc1cc(C#N)ccc1-c1ccc(CCN)cc1 10 to 1000 nM

Please look at this compound and report its IC50: Cc1nc(Oc2cc(C#N)ccc2-c2ccc(C(C)CN)cc2)cc(N2CCOCC2)n1 (centres unmarked) < 10 nM

----------
Would you mind telling me the reported IC50 of each entry?
Target: Human TRPC6 (Homo sapiens)
Construct: expressed in transfected cells
Sequence (Q9Y210 1-931): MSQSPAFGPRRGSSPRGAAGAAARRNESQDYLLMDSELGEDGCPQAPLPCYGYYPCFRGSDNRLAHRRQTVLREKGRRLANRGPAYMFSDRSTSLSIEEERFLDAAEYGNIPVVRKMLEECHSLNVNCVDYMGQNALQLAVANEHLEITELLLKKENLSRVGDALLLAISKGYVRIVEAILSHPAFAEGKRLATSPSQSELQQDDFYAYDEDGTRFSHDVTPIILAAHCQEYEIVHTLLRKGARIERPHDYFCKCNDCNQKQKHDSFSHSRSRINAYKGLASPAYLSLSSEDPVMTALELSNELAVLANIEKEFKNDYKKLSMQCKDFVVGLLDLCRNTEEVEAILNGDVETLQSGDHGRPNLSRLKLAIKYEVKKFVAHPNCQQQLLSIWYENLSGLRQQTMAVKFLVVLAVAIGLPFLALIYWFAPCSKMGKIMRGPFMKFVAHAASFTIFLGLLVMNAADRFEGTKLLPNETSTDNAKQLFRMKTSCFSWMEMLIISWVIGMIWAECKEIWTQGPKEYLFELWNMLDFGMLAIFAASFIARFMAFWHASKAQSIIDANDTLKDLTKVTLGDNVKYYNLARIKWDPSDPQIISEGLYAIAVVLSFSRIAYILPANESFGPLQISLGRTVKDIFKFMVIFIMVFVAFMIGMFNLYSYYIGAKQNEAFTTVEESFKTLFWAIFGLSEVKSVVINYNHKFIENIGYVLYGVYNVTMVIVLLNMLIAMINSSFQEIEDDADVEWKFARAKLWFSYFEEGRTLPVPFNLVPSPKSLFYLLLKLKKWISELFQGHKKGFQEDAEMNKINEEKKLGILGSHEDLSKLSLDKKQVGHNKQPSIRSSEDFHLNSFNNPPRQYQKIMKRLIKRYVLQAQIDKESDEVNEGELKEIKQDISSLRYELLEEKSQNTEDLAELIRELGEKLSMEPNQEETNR
Assay: Evaluation of TRPC6 channel inhibitory activity (1), FLIPR Calcium 5 Assay Kit, OAG stimulation (Compound Nos. 1-1293)
Format: cell-based
Conditions: Human TRPC6 stably-expressing cells, OAG 30 μM, FLIPR Calcium 5 Assay Kit; read-out: Inhibitory activity (pIC50 class) (converted)

Please respond with reported IC50 (system Human TRPC6 (Homo sapiens)) for Cc1cc(Oc2cc(C#N)ccc2-c2ccc(CN)cn2)cc(NC2CC2)n1 [compound 645] . 10 to 1000 nM

Please respond with reported IC50 (system Human TRPC6 (Homo sapiens)) for Cc1nc(Oc2cc(C#N)ccc2-c2ncc(CN)cn2)cc(N2CCC(F)CC2)n1 [compound 669] . 10 to 1000 nM

Please respond with reported IC50 (system Human TRPC6 (Homo sapiens)) for Cc1cc(Oc2cc(C#N)ccc2-c2ccc([C@H](O)CN)cn2)cc(N2CCCCC2)n1 [compound 500] . < 10 nM

Please respond with reported IC50 (system Human TRPC6 (Homo sapiens)) for N#Cc1ccc(-c2ncc(CCN)cn2)c(Cn2cc(N3CCCC3)cn2)c1 [Compound No. 1198] . 10 to 1000 nM

Please respond with reported IC50 (system Human TRPC6 (Homo sapiens)) for Cc1nc(Oc2cc(C#N)ccc2-n2cc(C(O)CN)cn2)cc(N2CCOCC2)n1 (centres unmarked) [Compound 136] . 10 to 1000 nM

Please respond with reported IC50 (system Human TRPC6 (Homo sapiens)) for Cn1nc(-c2ccccn2)cc1Oc1cc(C#N)ccc1-c1cc(CN)ccn1 [compound 642] . < 10 nM

Please respond with reported IC50 (system Human TRPC6 (Homo sapiens)) for N#Cc1ccc(-c2ncc(CCN)cn2)c(Oc2cc(N3CCCC3)ncc2C#N)c1 [compound 739] . 10 to 1000 nM

Please respond with reported IC50 (system Human TRPC6 (Homo sapiens)) for COC(CN)c1ccc(-c2ccc(C#N)cc2Oc2cc(N3CCOCC3)nc(C)n2)cc1 (centres unmarked) [Compound 11] . < 10 nM

Please respond with reported IC50 (system Human TRPC6 (Homo sapiens)) for CC(C)c1cc(Oc2cc(C#N)ccc2-c2ccc(CN)n3ccnc23)n(C)n1 [compound 711] . < 10 nM

Please respond with reported IC50 (system Human TRPC6 (Homo sapiens)) for N#Cc1ccc(-c2ccc(CCN)cc2)c(Oc2sc(-c3ccccc3)nc2C#N)c1 [compound 807] . 10 to 1000 nM

Please respond with reported IC50 (system Human TRPC6 (Homo sapiens)) for Cn1nc(-c2ccccn2)cc1Oc1cc(C#N)ccc1-c1ccc(CCN)cc1 [Compound 160] . < 10 nM

Please respond with reported IC50 (system Human TRPC6 (Homo sapiens)) for Cc1nn(CC(F)(F)F)cc1Oc1cc(C#N)ccc1-c1ncc(CCN)cn1 [compound 834] . < 10 nM

Please respond with reported IC50 (system Human TRPC6 (Homo sapiens)) for Cc1cc(Oc2cc(C#N)ccc2-c2ncc(CCN3CCOCC3)cn2)cc(N2CCOCC2)n1 [compound 419] . > 1000 nM

Please respond with reported IC50 (system Human TRPC6 (Homo sapiens)) for Cn1nc(C2CC2)cc1Oc1cc(C#N)ccc1-c1ccc(C(=O)CN)cn1 [compound 923] . 10 to 1000 nM

Please respond with reported IC50 (system Human TRPC6 (Homo sapiens)) for N#Cc1ccc(-c2ncc(C(O)CN)s2)c(Oc2cnnc(-c3ccccc3)c2)c1 (centres unmarked) [Compound 246] . < 10 nM

Please respond with reported IC50 (system Human TRPC6 (Homo sapiens)) for Cn1nc(N2CCCCC2)cc1Oc1cc(C#N)ccc1-c1ccc([C@H](O)CN)cn1 [compound 544] . < 10 nM

Please respond with reported IC50 (system Human TRPC6 (Homo sapiens)) for Cc1cc(Oc2cc(C#N)ccc2-c2ccc(CCN)cn2)cc(N2CCCC2)n1 [Compound 254] . < 10 nM

----------
Would you mind telling me the reported IC50 of each entry?
Molecular target: Human TRPC6 (Homo sapiens)
Construct: expressed in transfected cells
Sequence (Q9Y210 1-931): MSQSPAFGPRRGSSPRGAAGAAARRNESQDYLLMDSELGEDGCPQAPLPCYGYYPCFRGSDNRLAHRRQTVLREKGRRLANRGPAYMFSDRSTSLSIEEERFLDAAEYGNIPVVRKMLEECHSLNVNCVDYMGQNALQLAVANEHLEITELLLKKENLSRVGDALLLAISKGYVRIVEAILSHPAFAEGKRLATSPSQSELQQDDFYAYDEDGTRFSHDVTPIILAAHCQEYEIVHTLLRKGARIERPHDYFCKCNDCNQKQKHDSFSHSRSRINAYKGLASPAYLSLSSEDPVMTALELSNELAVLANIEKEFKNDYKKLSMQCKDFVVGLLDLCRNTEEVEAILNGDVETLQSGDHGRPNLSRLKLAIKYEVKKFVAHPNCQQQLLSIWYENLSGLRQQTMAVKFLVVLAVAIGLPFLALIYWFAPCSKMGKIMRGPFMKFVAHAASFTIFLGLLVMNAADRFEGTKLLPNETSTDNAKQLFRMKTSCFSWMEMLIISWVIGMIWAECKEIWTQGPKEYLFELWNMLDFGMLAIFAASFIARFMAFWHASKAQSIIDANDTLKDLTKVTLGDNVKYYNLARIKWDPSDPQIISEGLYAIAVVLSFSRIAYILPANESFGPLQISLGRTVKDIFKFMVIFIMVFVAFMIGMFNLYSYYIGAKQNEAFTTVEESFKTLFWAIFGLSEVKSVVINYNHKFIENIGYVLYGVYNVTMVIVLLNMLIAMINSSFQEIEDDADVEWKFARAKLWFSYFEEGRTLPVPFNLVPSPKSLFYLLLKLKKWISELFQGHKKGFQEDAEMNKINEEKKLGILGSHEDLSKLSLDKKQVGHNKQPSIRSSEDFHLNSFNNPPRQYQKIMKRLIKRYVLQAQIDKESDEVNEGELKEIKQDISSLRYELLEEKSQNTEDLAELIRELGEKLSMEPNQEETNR
Test: Evaluation of TRPC6 channel inhibitory activity (1), FLIPR Calcium 5 Assay Kit, OAG stimulation (Compound Nos. 1-1293)
Type: cell-based
Conditions: Human TRPC6 stably-expressing cells, OAG 30 μM, FLIPR Calcium 5 Assay Kit; read-out: Inhibitory activity (pIC50 class) (converted)

Please look at this compound and report its IC50: N#Cc1ccc(-c2ncc(CN)cn2)c(Oc2nnc(-c3ccccc3)s2)c1 10 to 1000 nM

Please look at this compound and report its IC50: Cn1nc(-c2ccccc2)cc1Oc1cc(C#N)ccc1-c1ccc(CCN)nn1 < 10 nM

Please look at this compound and report its IC50: Cc1nc(Oc2cc(C#N)ccc2-c2ncc(CN)cn2)cc(N(C)C2COC2)n1 > 1000 nM

Please look at this compound and report its IC50: Cc1nc(Oc2cc(C#N)ccc2-c2ncc(CCN)cn2)cc(N(C)C2COC2)n1 > 1000 nM

Please look at this compound and report its IC50: COCCN(C)c1cc(Oc2cc(C#N)ccc2-c2ccc(CN)cn2)n(C)n1 < 10 nM

Please look at this compound and report its IC50: Cc1nnc(N2CCOCC2)cc1Oc1cc(C#N)ccc1-c1ncc(CN)cn1 10 to 1000 nM

Please look at this compound and report its IC50: Cc1cc(Oc2cc(C#N)ccc2-c2ccc(C(O)C(C)(C)N)cn2)cc(N2CCOCC2)n1 (centres unmarked) 10 to 1000 nM

Please look at this compound and report its IC50: NCCc1cnc(-c2ccc(F)cc2Oc2cnn(CC(F)(F)F)c2)nc1 10 to 1000 nM
